For each of the compounds below, state its TGI.
tested on: SF-268 CNS; test: NCI tumour cell line growth inhibition, 48 h

If you can, please state the reported TGI value of CN(C)CCCNC(=O)c1cc(NC(=O)c2cc(NC(=O)CCCn3c4ccccc4c4ccccc43)cn2C)cn1C . 41.6 µM

If you can, please state the reported TGI value of CC1C(=O)OCC2=CCN3CCC(OC(=O)C(C)C1(C)O)C23 (stereo not given) . > 100 µM

If you can, please state the reported TGI value of O=C(O)c1ccc2c(c1)CCCC(c1ccc(Cl)cc1Cl)=C2c1ccc(O[C@H]2CCN(CCCF)C2)cc1 . 28.5 µM

If you can, please state the reported TGI value of Cc1c(CN2CCN(C)CC2)c(CN2CCN(C)CC2)c(C)n1-c1ccc(Cl)cc1 . > 100 µM

If you can, please state the reported TGI value of COc1cc2c(=O)n(CCN)c3c4cc5c(cc4ccc3c2cc1OC)OCO5 . 2.14 µM

If you can, please state the reported TGI value of CC(C)C(=O)C(C)(C)CCc1ccccn1 . > 100 µM

If you can, please state the reported TGI value of CCC1=NC(CO)[C@H](c2ccccc2)O1 (stereo not given in full) . > 100 µM

If you can, please state the reported TGI value of CCOC(=O)/C=C1\CCCC12OCCO2 . > 100 µM

If you can, please state the reported TGI value of O=C1c2cc(Cl)ccc2-c2c1c1ccc([N+](=O)[O-])cc1c(=O)n2CCCBr . > 100 µM

If you can, please state the reported TGI value of OCCOCn1nncc1Cn1ncc2c(SCc3ccccc3)ncnc21 . > 100 µM

If you can, please state the reported TGI value of CCOc1cc(/C=N\Nc2nnc(C)n2N)c(C)cc1N(CCCl)CCCl . > 92.6 µM

If you can, please state the reported TGI value of C/C(CCc1ccccc1)=N\NC(N)=S . > 100 µM

If you can, please state the reported TGI value of Cc1ccc(-c2cc(-c3ccccc3)c(C#N)c(=O)n2C2OC(CO)C(O)C(O)C2O)cc1 (stereo not given) . > 100 µM

If you can, please state the reported TGI value of O=S(=O)(c1cc(Cl)ccc1Cl)n1ccnc1 . > 100 µM

If you can, please state the reported TGI value of Cc1cc(S(=O)(=O)/N=C(/C(=C=[N-])C#N)[n+]2ccc(N(C)C)cc2)c(SCC(=O)O)cc1Cl . > 100 µM

If you can, please state the reported TGI value of CC1=NN(c2nc(N)nc(-c3sccc3N)n2)C(C)(C)C1 . > 100 µM

If you can, please state the reported TGI value of COc1cc2cc(C(=O)N3C[C@H](CCl)c4c3cc(N)c3ccccc43)[nH]c2c(OC)c1OC . 1.74 µM

If you can, please state the reported TGI value of COc1cc(C(c2c(O)c3ccccc3oc2=O)c2c(O)c3ccccc3oc2=O)cc(Br)c1O . 30 µM

If you can, please state the reported TGI value of O=C1N=C2SC(=S)NC(=S)N2NC12c1ccccc1-c1ccccc12 . > 10 µM

If you can, please state the reported TGI value of C[C@]12CCC(=O)[C@@H](CCC3=CC(=O)C=CC3=O)[C@@H]1CCC2=O . 39.5 µM

If you can, please state the reported TGI value of Nc1nc(Cl)cc(NCC2(O)CC2)n1 . > 100 µM

If you can, please state the reported TGI value of O=c1cc(-c2ccncc2)[nH]c2cc3c(cc12)OCO3 . > 100 µM

If you can, please state the reported TGI value of Cn1c(=O)c(-c2ccccc2)c(O)c2ccccc21 . > 100 µM

If you can, please state the reported TGI value of CS(=O)(=O)Nc1ccc2c(c1)N(S(C)(=O)=O)CC2CCl (stereo not given) . > 100 µM

If you can, please state the reported TGI value of C/C=C(/C)C(=O)OC1CC(C)[C@H]2CC(=O)C(C)=C2CC1C(C)(C)OC(C)=O (stereo not given in full) . > 100 µM
